# Tested system: Nav 1.5 (Homo sapiens (Human))
# Sequence (Q14524 whole entry): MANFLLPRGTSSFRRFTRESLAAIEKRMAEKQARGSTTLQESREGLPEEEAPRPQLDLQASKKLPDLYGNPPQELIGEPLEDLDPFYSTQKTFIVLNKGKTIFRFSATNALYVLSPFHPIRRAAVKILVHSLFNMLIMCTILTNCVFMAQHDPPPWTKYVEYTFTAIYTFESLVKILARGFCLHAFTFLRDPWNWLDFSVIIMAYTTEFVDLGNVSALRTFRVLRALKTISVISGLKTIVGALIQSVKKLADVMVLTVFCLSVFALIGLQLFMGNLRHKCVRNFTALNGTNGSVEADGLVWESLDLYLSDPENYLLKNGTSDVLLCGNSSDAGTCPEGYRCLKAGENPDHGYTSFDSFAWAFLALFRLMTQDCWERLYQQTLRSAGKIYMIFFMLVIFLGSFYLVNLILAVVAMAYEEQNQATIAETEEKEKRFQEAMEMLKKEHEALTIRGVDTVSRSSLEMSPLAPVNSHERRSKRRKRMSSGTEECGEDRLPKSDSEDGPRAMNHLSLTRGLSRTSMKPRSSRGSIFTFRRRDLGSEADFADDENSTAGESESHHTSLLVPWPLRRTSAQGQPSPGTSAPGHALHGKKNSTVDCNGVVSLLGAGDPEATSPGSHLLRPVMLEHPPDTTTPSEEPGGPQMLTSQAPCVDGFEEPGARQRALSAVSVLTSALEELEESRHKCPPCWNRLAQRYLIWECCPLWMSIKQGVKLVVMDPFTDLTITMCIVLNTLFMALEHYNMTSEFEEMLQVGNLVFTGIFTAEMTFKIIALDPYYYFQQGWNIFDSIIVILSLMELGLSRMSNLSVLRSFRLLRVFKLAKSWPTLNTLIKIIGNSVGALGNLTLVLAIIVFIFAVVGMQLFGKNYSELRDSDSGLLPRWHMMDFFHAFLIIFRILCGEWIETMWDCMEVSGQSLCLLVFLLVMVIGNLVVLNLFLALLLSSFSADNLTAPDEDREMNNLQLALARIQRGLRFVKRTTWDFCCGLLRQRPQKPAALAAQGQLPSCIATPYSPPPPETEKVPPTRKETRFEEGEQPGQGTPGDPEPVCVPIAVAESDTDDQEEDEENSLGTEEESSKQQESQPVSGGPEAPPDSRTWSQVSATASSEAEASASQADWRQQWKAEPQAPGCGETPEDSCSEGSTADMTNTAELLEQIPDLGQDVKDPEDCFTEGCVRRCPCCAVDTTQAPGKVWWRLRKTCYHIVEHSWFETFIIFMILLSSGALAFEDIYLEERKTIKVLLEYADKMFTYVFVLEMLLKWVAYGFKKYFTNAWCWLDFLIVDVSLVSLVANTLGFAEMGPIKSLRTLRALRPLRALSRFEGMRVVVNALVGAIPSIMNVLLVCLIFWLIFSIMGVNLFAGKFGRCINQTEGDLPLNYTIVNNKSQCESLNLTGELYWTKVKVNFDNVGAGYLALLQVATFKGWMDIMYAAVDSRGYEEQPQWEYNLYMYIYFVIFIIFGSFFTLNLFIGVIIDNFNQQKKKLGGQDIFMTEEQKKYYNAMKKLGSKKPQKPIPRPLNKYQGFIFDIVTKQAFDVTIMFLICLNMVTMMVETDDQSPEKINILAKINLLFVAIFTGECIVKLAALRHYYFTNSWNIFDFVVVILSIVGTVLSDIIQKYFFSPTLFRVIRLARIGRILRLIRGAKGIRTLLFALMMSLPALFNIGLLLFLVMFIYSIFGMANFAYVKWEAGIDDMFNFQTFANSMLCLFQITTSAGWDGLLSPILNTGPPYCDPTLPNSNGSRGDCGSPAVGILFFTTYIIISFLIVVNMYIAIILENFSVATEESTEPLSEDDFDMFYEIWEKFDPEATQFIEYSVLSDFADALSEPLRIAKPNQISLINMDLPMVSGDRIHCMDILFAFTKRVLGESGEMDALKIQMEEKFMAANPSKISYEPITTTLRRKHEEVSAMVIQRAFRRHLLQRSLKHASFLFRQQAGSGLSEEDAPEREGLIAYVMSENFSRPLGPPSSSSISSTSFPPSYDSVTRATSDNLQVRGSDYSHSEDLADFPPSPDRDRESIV
# Run description: cell-based
pIC50: −log10 of the molar value. Counter-ions that a name gives are not always drawn.
A collection of molecules and their measured pIC50
Observation type: pIC50

• CN1CC=C(c2cc(C(F)(F)F)ccc2-c2cccc3c2CCN(S(=O)(=O)Nc2ncns2)C3)CC1 = < 5.00
• O=S(=O)(Nc1ncns1)N1CCc2c(cccc2-c2ccc(C(F)(F)F)cc2-n2ccnc2)C1 = 5.18
• O=S(=O)(Nc1ncns1)N1CCc2c(cccc2-c2ccc(C(F)(F)F)cc2C2=CCNC2)C1 [Example 34, hydrochloride] = < 5.00
• O=S(=O)(Nc1ncns1)N1CCc2c(cccc2-c2ccc(Cl)cc2Cl)C1 = < 5.00
• COc1cc(C(F)(F)F)ccc1-c1cccc2c1C(C)CN(S(=O)(=O)Nc1ncns1)C2 (racemic) = 5.14
• O=S(=O)(Nc1ccncn1)N1CCc2c(cccc2-c2ccc(C(F)(F)F)cc2C2=CCNCC2)C1 = < 5.00
• O=S(=O)(Nc1ncc(F)s1)N1CCc2c(cccc2-c2ccc(C(F)(F)F)cc2-n2ccnc2)C1 = < 5.00

###

# Tested system: Nav 1.7 (Homo sapiens (Human), UniProt Q15858)
# Sequence (Q15858 whole entry): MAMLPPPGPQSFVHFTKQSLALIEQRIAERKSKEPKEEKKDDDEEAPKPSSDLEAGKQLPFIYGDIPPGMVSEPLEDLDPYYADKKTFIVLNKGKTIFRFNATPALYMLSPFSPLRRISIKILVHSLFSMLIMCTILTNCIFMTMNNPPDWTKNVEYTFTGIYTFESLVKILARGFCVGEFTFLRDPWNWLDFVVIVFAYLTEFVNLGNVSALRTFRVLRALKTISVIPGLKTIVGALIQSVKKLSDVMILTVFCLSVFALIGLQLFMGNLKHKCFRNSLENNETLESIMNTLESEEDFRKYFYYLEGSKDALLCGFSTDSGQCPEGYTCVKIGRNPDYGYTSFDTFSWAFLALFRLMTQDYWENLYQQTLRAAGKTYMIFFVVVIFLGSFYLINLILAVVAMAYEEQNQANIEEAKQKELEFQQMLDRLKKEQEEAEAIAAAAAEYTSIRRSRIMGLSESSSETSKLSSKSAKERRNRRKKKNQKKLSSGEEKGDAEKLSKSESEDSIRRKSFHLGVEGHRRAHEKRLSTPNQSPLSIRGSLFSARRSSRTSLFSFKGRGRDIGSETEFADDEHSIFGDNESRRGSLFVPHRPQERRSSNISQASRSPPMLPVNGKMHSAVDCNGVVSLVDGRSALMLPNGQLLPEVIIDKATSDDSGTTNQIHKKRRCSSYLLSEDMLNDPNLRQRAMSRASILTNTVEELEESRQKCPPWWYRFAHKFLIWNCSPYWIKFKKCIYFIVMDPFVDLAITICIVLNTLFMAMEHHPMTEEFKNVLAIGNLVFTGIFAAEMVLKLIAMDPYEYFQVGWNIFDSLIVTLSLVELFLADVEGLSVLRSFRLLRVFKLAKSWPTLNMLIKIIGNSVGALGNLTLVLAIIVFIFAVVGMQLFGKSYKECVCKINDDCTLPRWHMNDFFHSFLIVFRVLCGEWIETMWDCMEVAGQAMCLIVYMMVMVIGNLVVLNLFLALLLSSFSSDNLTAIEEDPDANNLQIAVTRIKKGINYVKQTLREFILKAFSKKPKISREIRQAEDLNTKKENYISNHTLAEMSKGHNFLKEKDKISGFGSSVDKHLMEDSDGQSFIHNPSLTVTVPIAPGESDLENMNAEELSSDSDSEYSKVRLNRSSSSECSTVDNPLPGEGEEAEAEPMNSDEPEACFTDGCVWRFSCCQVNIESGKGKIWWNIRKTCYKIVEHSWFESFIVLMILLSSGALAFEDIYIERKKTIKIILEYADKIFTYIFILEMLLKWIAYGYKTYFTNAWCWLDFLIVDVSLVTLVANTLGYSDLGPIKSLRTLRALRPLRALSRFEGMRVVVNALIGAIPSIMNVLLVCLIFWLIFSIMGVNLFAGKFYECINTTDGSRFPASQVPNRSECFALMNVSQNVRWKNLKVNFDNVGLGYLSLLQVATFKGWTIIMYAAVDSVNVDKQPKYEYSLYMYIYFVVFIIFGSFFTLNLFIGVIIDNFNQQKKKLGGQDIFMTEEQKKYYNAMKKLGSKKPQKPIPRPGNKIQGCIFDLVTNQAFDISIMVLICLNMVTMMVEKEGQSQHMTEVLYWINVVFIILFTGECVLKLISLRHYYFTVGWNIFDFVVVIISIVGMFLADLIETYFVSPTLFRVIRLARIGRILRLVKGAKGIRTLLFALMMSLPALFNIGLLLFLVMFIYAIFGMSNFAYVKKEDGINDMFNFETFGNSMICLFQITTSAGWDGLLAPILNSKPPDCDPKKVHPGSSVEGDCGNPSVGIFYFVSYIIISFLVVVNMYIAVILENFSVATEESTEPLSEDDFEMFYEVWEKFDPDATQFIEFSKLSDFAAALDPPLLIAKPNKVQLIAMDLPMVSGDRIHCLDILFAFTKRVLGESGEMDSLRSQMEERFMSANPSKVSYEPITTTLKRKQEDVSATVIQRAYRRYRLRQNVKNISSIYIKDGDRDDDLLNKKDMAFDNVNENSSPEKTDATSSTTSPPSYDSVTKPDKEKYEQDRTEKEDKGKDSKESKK
# Run description: Nav 1.7 IonWorks Quattro (IWQ) in vitro assay, population patch-clamp
# Assay type: cell-based
# Details: 293 cells stably transfected with Nav 1.7; block at 26th pulse to −20 mV
pIC50: −log10 of the molar value.
A collection of molecules and their measured pIC50
Observation type: pIC50

* COc1cc(C(F)(F)F)ccc1-c1cccc2c1CN(S(=O)(=O)Nc1ncns1)CC2 | 5.03
* O=S(=O)(Nc1ncns1)N1CCc2c(cccc2-c2ccc(C(F)(F)F)cc2-c2cncnc2)C1 | 6.73
* O=S(=O)(Nc1ncns1)N1CCc2c(cccc2-c2ccc(C(F)(F)F)cc2C2=CCOCC2)C1 | 6.42
* Cn1nccc1-c1cc(C(F)(F)F)ccc1-c1cccc2c1CCN(S(=O)(=O)Nc1ncns1)C2 | 7.44

###

A collection of molecules and their measured log10(IC50)
# Tested system: Nav 1.7 (Homo sapiens (Human), UniProt Q15858)
# Run description: Nav 1.7 IonWorks Quattro (IWQ) in vitro assay, population patch-clamp;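 further: cells held at −110 mV for 3 s, then 26 pulses of 150 ms at 5 Hz, leak-corrected peak current, percent block measured before and after compound, 3–8 min exposure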
# Assay type: cell-based
# Details: 293 cells stably transfected with Nav 1.7; block at 26th pulse to −20 mV
Observation type: log10(IC50) (log10 of the value in nM)

• CC(C)(C)OC(=O)N1CC=C(c2cc(C(F)(F)F)ccc2-c2cccc3c2CCN(S(=O)(=O)Nc2ncns2)C3)CC1 [Example 5] = 3.01
• COc1cc(C2CC2)ccc1-c1nccc2c1CCN(S(=O)(=O)Nc1ncns1)C2 [Example 47] = 1.77
• O=S(=O)(Nc1ncns1)N1CCc2c(cccc2-c2ccc(Cl)cc2Cl)C1 [Example 12] = 3.38
• O=S(=O)(Nc1ncns1)N1CCc2c(cccc2-c2ccc(C(F)(F)F)cc2-n2ccnc2)C1 [Example 32] = 1.41
• COc1cncc(-c2cc(C(F)(F)F)ccc2-c2cccc3c2CCN(S(=O)(=O)Nc2ncns2)C3)c1 [Example 20] = 3.77
• O=S(=O)(Nc1ncns1)N1CCc2c(cccc2-c2ccc(C(F)(F)F)cc2Br)C1 [Example 4] = 2.72
• O=S(=O)(Nc1ncc(F)s1)N1CCc2c(cccc2-c2ccc(C(F)(F)F)cc2-n2ccnc2)C1 [Example 38] = 1.96
• O=S(=O)(Nc1ncns1)N1CCc2c(cccc2-c2ccc(C(F)(F)F)cc2-c2ccncc2)C1 [Example 2] = 2.34
• COc1ccc(OC)c(-c2cccc3c2CCN(S(=O)(=O)Nc2ncns2)C3)c1 [Example 27] = 2.10
• Cc1cncc(-c2cc(C(F)(F)F)ccc2-c2cccc3c2CCN(S(=O)(=O)Nc2ncns2)C3)c1 [Example 21] = 3.26
• COc1cc(C(F)(F)F)ccc1-c1cccc2c1C(C)CN(S(=O)(=O)Nc1ncns1)C2 (racemic) [Example 48] = 3.61
• Cn1nccc1-c1cc(C(F)(F)F)ccc1-c1cccc2c1CCN(S(=O)(=O)Nc1nccs1)C2 [Example 3] = 2.62
• Nc1cc(-c2cc(C(F)(F)F)ccc2-c2cccc3c2CCN(S(=O)(=O)Nc2ncns2)C3)ccn1 [Example 18] = 1.66
• COc1cc(C(F)(F)F)ccc1-c1ncnc2c1CCN(S(=O)(=O)Nc1ncns1)C2 [Example 61] = 2.15
• O=S(=O)(Nc1ncns1)N1CCc2c(cccc2-c2ccc(C(F)(F)F)cc2N2CCOCC2)C1 [Example 31] = 2.88
• Cc1cn(-c2cc(C(F)(F)F)ccc2-c2cccc3c2CCN(S(=O)(=O)Nc2ncc(F)s2)C3)cn1 [Example 42] = 2.36

###

# Tested system: Nav 1.5 (Homo sapiens (Human));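 further: HEK293 cells stably expressing Nav1.5, sodium current at the 26th of 26 pulses to −20 mV (150 ms, 5 Hz) after compound versus before, leak-corrected, 3–8 min exposure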
# Run description: cell-based
pIC50: −log10 of the molar value. Counter-ions that a name gives are not always drawn.
A collection of compounds and their measured pIC50
Observation type: pIC50

- Cn1nccc1-c1cc(C(F)(F)F)ccc1-c1cccc2c1CCN(S(=O)(=O)Nc1ncns1)C2: < 5.00
- CN1CC=C(c2ccc(C(F)(F)F)cc2-c2cccc3c2CCN(S(=O)(=O)Nc2ncc(F)s2)C3)CC1: < 5.00
- Nc1cc(-c2cc(C(F)(F)F)ccc2-c2cccc3c2CCN(S(=O)(=O)Nc2ncns2)C3)ccn1: < 5.00
- O=S(=O)(Nc1ncc(F)s1)N1CCc2c(cccc2-c2ccc(C(F)(F)F)cc2C2CCNCC2)C1 [Example 35, hydrochloride]: < 5.00
- O=S(=O)(Nc1ncns1)N1CCc2c(cccc2-c2cccc3c2CCNC3)C1 [Example 13, hydrochloride]: < 5.00
- C[N+]1(C)CC=C(c2cc(C(F)(F)F)ccc2-c2cccc3c2CCN(S(=O)(=O)Nc2ncns2)C3)CC1: < 5.00
- Cc1cncc(-c2cc(C(F)(F)F)ccc2-c2cccc3c2CCN(S(=O)(=O)Nc2ncns2)C3)c1: 5.39
- O=S(=O)(Nc1ncns1)N1CCc2c(cccc2-c2cncc3ccccc23)C1: < 5.00

###

# Tested system: Nav 1.7 (Homo sapiens (Human), UniProt Q15858)
# Run description: Nav 1.7 in vitro PatchExpress (PX) assay, whole cell voltage clamp
# Assay type: cell-based
# Details: 293 cells stably transfected with human Nav1.7; partially inactivated state (20 to 50% inactivation)
pIC50: −log10 of the molar value.
Observation type: pIC50

• COc1ccc(-c2ccc(F)c(F)c2)cc1-c1cccc2c1CCN(S(=O)(=O)Nc1nncs1)C2 [Example 63] = 4.95
• COc1cc(C(F)(F)F)ccc1-c1ncnc2c1CCN(S(=O)(=O)Nc1ncns1)C2 [Example 61] = 5.92
• Cn1nccc1-c1cc(C(F)(F)F)ccc1-c1cccc2c1CCN(S(=O)(=O)Nc1ncccn1)C2 [Example 49] = 4.84
• O=S(=O)(Nc1ncns1)N1CCc2c(cccc2-c2ccc(C(F)(F)F)cc2Br)C1 [Example 4] = 6.25

###

A collection of compounds and their measured IC50
# Tested system: Nav 1.7 (Homo sapiens (Human), UniProt Q15858)
# Run description: Nav 1.7 in vitro PatchExpress (PX) assay, whole cell voltage clamp
# Type: cell-based
# Details: 293 cells stably transfected with human Nav1.7; partially inactivated state (20 to 50% inactivation)
Observation type: IC50

- O=S(=O)(Nc1ncns1)N1CCc2c(cccc2-c2ccc(Cl)cc2Cl)C1: 1330 nM
- O=S(=O)(Nc1ncns1)N1CCc2c(cccc2-c2ccc(C(F)(F)F)cc2-c2cncnc2)C1: 800 nM
- COc1cc(C2CC2)ccc1-c1cccc2c1CCN(S(=O)(=O)Nc1ncns1)C2: 870 nM
